Test system: MDA-MB-231
test method notes: Cytotoxicity against human MDA-MB-231 cells after 72 hrs by MTT assay
Assay type: functional, cell-based
assay conditions: MDA-MB-231, 72 h
measured attribute: pIC50
To interpret pIC50, take it as minus log10 of a concentration measured in moles per litre.

> print(dat)
                                smiles.data  reported.measurement
1  CN(C)CCNc1nc(-c2ccc(NC(=O)Nc3ccc(Cl)cc3)cc2)nc2c(Cl)c(Cl)sc12                  6.06

The molecule listed as `CN(C)CCCNc1nc(-c2ccc(NC(=O)Nc3ccc(Cl)cc3Cl)cc2)nc2ccsc12` shows pIC50 equal to 5.73

Reported pIC50 ( `CN(C)CCNc1nc(-c2ccc(NC(=O)Nc3ccc(Cl)cc3)cc2)nc2ccsc12` ) = 6.51

Briefly, pIC50 measured for `CN(C)CCNc1nc(-c2ccc(NC(=O)Nc3ccc(Cl)cc3Cl)cc2)nc2ccsc12` : 5.61

Entry `CCN(CC)CCCNc1nc(-c2ccc(NC(=O)Nc3ccc(Cl)cc3)cc2)nc2ccsc12` , pIC50 reported as 6.64

* * *

System: MDA-MB-231
test method notes: Cytotoxicity against human MDA-MB-231 cells after 72 hrs by MTT assay
Type: functional, cell-based
assay conditions: MDA-MB-231, 72 h
measured attribute: pIC50
By convention, pIC50 is the negative base-10 log of a molar concentration.

Consider the reported pIC50 for these compounds:
> print(dat)
                                 smiles.data  system.tested  reported.measurement
 1  CCN(CC)CCNc1nc(-c2ccc(NC(=O)Nc3ccc(Cl)cc3Cl)cc2)nc2ccsc12     MDA-MB-231                  5.61
 2  CCN(CC)CCNc1nc(-c2ccc(NC(=O)Nc3ccc(Cl)cc3)cc2)nc2ccsc12     MDA-MB-231                  6.26
 3  CN(C)CCNc1nc(-c2ccc(NC(=O)Nc3ccccc3Cl)cc2)nc2c(Cl)c(Cl)sc12     MDA-MB-231                  5.87
 4  CN(C)CCCNc1nc(-c2ccc(NC(=O)Nc3ccccc3Cl)cc2)nc2c(Cl)c(Cl)sc12     MDA-MB-231                  5.81
 5  CCN(CC)CCCNc1nc(-c2ccc(NC(=O)Nc3ccccc3Cl)cc2)nc2ccsc12     MDA-MB-231                  6.30
 6  CN(C)CCCNc1nc(-c2ccc(NC(=O)Nc3ccc(Cl)cc3Cl)cc2)nc2c(Cl)c(Cl)sc12     MDA-MB-231                  5.46
 7  CCN(CC)CCCNc1nc(-c2ccc(NC(=O)Nc3ccc(C)cc3)cc2)nc2ccsc12     MDA-MB-231                  5.70
 8  CCN(CC)CCNc1nc(-c2ccc(NC(=O)Nc3ccccc3F)cc2)nc2ccsc12     MDA-MB-231                  6.24
 9  Cc1ccc(NC(=O)Nc2ccc(-c3nc(NCCCN(C)C)c4sc(Cl)c(Cl)c4n3)cc2)cc1     MDA-MB-231                  5.30
10  CN(C)CCCNc1nc(-c2ccc(NC(=O)Nc3ccccc3Cl)cc2)nc2ccsc12     MDA-MB-231                  6.23

The recorded pIC50 for entry `CCN(CC)CCCNc1nc(-c2ccc(NC(=O)Nc3ccc(Cl)cc3Cl)cc2)nc2c(Cl)c(Cl)sc12` equals 5.40

Looking up `CCN(CC)CCCNc1nc(-c2ccc(NC(=O)Nc3ccccc3)cc2)nc2c(Cl)c(Cl)sc12` , I see its pIC50 listed as 5.75

# pIC50 (compound: `CCN(CC)CCCNc1nc(-c2ccc(NC(=O)Nc3ccc(Cl)cc3)cc2)nc2c(Cl)c(Cl)sc12` ) is 6.18

// `CN(C)CCNc1nc(-c2ccc(NC(=O)Nc3ccccc3F)cc2)nc2ccsc12` : pIC50 value = 6.22

Noted for `CN(C)CCCNc1nc(-c2ccc(NC(=O)Nc3ccc(F)cc3)cc2)nc2c(Cl)c(Cl)sc12` : its pIC50 reads 6.01

Lab book: pIC50 of `CN(C)CCNc1nc(-c2ccc(NC(=O)Nc3ccccc3)cc2)nc2ccsc12` noted as 5.88

// pIC50 lookup, compound = `CN(C)CCCNc1nc(-c2ccc(NC(=O)Nc3ccc(Cl)cc3)cc2)nc2c(Cl)c(Cl)sc12` , result: 5.94

pIC50 reading for `CCN(CC)CCCNc1nc(-c2ccc(NC(=O)Nc3ccccc3F)cc2)nc2ccsc12` : 6.07

Briefly, pIC50 measured for `CCN(CC)CCNc1nc(-c2ccc(NC(=O)Nc3ccccc3Cl)cc2)nc2ccsc12` : 6.17

GET /value?item= `CCN(CC)CCCNc1nc(-c2ccc(NC(=O)Nc3ccccc3Cl)cc2)nc2c(Cl)c(Cl)sc12` &field=pIC50 returns 6.01

Reported pIC50 ( `CN(C)CCNc1nc(-c2ccc(NC(=O)Nc3ccc(F)cc3)cc2)nc2c(Cl)c(Cl)sc12` ) = 5.91
